system: HS 578T breast; assay: NCI-60 one-dose screen, 48 h (100 = growth as untreated, 0 = no growth, -100 = all killed); details: 10 µM
The panel holds about 83,000 compounds, 20% with a hit somewhere; the sample as a whole holds those more often.
OBSERVATION TYPE: growth (%)
Answers are plain numbers, in %.

Here's what some known entries look like.
>  <COMPOUND>
CN(C)Cc1cc(C(C)(C)CC(C)(C)C)ccc1O

>  <RECORDED RESULT>
106

$$$$
>  <COMPOUND>
Cc1cc2nc(CC(=O)c3ccccc3)c(=O)[nH]c2cc1C

>  <RECORDED RESULT>
73.8

$$$$
>  <COMPOUND>
Cc1nc2c(ccc3ccccc32)s1

>  <RECORDED RESULT>
106

$$$$

Parameters: items (list). Returns: growth for each item.
1. NCCCN
2. CC(=O)NCc1cc(C)c(C)cc1C

Resp:
1. 104
2. 108

###

test system: SNB-19 CNS; assay: NCI-60 one-dose screen, 48 h (100 = growth as untreated, 0 = no growth, -100 = all killed); conditions: 10 µM
This is part of a sample that, as a whole, favours compounds with a hit. Of some 83,000 tested, about 20% had one in any assay. The source made the active and inactive calls. The calls were made as follows: active = growth percent below 10; inactive = the rest.
OBSERVATION TYPE: growth

Solved cases below.
>  <COMPOUND>
[O-][N+](=Nc1cccc(Cl)c1)c1cccc(Cl)c1

>  <OBSERVATION TYPE>
growth

>  <RECORDED RESULT>
100% (inactive)

$$$$
>  <COMPOUND>
CNS(=O)(=O)c1ccc(Cl)c(Cl)c1

>  <OBSERVATION TYPE>
growth

>  <RECORDED RESULT>
106% (inactive)

$$$$
>  <COMPOUND>
C=CCNc1ccccc1

>  <OBSERVATION TYPE>
growth

>  <RECORDED RESULT>
91.5% (inactive)

$$$$
>  <COMPOUND>
O=c1[nH]cc(Cl)cc1O

>  <OBSERVATION TYPE>
growth

>  <RECORDED RESULT>
105% (inactive)

$$$$
>  <COMPOUND>
CC(C)C(C#N)(C(C)C)C(C)C

>  <OBSERVATION TYPE>
growth

>  <RECORDED RESULT>
108% (inactive)

$$$$
>  <COMPOUND>
CC(=O)N(C)c1ccc([N+](=O)[O-])cc1

>  <OBSERVATION TYPE>
growth

>  <RECORDED RESULT>
97.5% (inactive)

$$$$
>  <COMPOUND>
COc1cc2c(cc1O)CC[C@@H]1C2CC[C@@]2(C)C1CC[C@@H]2O (stereo partly specified)

>  <OBSERVATION TYPE>
growth

>  <RECORDED RESULT>
28.9% (inactive)

$$$$
>  <COMPOUND>
COc1ccc(OC)c(/C=C2\CCc3ccccc3C2=O)c1

>  <OBSERVATION TYPE>
growth

>  <RECORDED RESULT>
38.6% (inactive)

$$$$

Record growth for all entries; do not skip any.
1. CC(=O)c1sc2c(c1OC(=O)c1ccc(Cl)cc1Cl)c(=O)n(-c1ccccc1)c(=S)n2-c1ccccc1
2. COc1nc(N)nc2c1ncn2C1OC(CO)CC1O (stereo unspecified)
3. COCCOC(=O)c1ccc(C(C)C)cc1
4. O=C(CS)Nc1ccc2ccccc2c1
5. Cc1cc(Cc2cc(C)c(N)cc2N)c(N)cc1N
6. O=S(=O)(O)c1cc(O)c2c(N=Cc3ccccc3O)c(S(=O)(=O)O)ccc2c1
7. Nc1nc(N)c2cc(S(=O)(=O)c3cccc(C(F)(F)F)c3)ccc2n1
8. CC(C)CCCC(=O)O

Resp:
["16.3% (inactive)", "103% (inactive)", "106% (inactive)", "101% (inactive)", "96.3% (inactive)", "108% (inactive)", "43.6% (inactive)", "101% (inactive)"]

Please state, for each entry, its recorded growth.
1. N#CSc1cc(S(N)(=O)=O)ccc1N
2. COc1cc(/C=N\Nc2ccccc2)ccc1OC(=O)c1ccccc1

Resp:
1. 102% (inactive)
2. 108% (inactive)

For each of the compounds below, note its growth.
1. COC1=CC(=O)c2nc(Cl)ccc2C1=O
2. S=C(Nc1ccccc1)N1CCCCC1
3. N#Cc1c(N)sc(=S)c2c1CCCC2
4. CCC(=O)Oc1ccc(OC)cc1
5. Cc1ccc(C(=O)N/N=C/c2ccc3c(c2)OCO3)cc1
6. CCC/C=C(/C(C)=O)C(=O)OCC
7. NC(N)=Nc1cc2ccccc2c2ccccc12
8. CCCC(=O)Nc1ccc2c(c1)CN1C(=O)c3ccccc3C1=N2

Resp:
113% (inactive)
111% (inactive)
105% (inactive)
104% (inactive)
96.7% (inactive)
94.8% (inactive)
82.2% (inactive)
110% (inactive)

Hi! Can you tell me growth for each of these compounds?
1. O=C(CC(=O)c1ccccc1O)c1ccccc1
2. COc1cc2cc(OC(C)=O)c3cc4c(cc3c2c(OC)c1OC)OCO4

Resp:
1. 86.9% (inactive)
2. 105% (inactive)
